The origin of these recorded values is patent US9255094B2.

# tgt: human recombinant serotonin (5-Hydroxytryptamine) 5-HT2A receptor (Homo sapiens, UniProt P28223)
# Construct: expressed in transfected cells; host or cells: Chinese hamster ovary (CHO-K1) cells
# Sequence (P28223 whole entry): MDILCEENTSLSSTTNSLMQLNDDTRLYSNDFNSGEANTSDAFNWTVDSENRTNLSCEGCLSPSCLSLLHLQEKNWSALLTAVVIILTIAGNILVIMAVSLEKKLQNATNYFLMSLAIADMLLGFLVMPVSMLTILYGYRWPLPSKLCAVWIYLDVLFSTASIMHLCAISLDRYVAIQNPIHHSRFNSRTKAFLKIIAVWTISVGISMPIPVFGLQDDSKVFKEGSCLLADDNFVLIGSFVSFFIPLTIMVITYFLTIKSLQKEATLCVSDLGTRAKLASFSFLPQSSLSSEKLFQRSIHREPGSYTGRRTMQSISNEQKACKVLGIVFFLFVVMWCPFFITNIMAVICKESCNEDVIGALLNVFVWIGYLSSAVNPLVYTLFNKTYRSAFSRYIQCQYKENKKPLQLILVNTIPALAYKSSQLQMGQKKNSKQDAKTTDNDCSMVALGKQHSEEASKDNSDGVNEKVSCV
# method.notes: Serotonin 5-HT2A radioligand binding assay ([3H]Ketanserin)
# assay.setup: compound at 0.1 μM; 0.5 nM [3H]Ketanserin; CHO-K1 cells; read-out: Percent Inhibition of ligand binding, Serotonin (0.1 μM) 5-HT2A
Threshold rule: inhibition at 0.1 µM greater than or equal to 20% is label 1; below that, label 0.

# check: inhibition at 0.1 µM of CCCC[C@](O)(Cn1c2c(c3cc(Cl)ccc31)CN(C)CC2)c1ccc(F)cc1 [Compound 1-61] is greater than or equal to 20%
label 1

Does the reported inhibition at 0.1 µM for CC[C@](O)(Cn1c2c(c3cc(C)ccc31)CN(C)CC2)c1ccncc1 [Compound 1-63] fall at or above the 20% mark?
label 1

Answer whether inhibition at 0.1 µM of Cc1ccc2c(c1)c1c(n2CC(C)(O)c2ccncc2)CCN(C2CC2)C1 (centres unmarked) [Compound 1-30] is greater than or equal to 20%.
label 0

Answer whether inhibition at 0.1 µM of Cc1ccc2c(c1)c1c(n2CC(C)(O)c2ccncn2)CCN(C)C1 (centres unmarked) [Compound 1-25] is greater than or equal to 20%.
label 0

Kindly determine if inhibition at 0.1 µM recorded for Cc1ccc2c(c1)c1c(n2CCc2ccc(C)nc2)CCN(CC(F)(F)F)C1 [Compound 1-65] is above or exactly 20%.
label 0

###

# tgt: human recombinant histamine H1 receptor (Homo sapiens, UniProt P35367)
# Sequence (P35367 whole entry): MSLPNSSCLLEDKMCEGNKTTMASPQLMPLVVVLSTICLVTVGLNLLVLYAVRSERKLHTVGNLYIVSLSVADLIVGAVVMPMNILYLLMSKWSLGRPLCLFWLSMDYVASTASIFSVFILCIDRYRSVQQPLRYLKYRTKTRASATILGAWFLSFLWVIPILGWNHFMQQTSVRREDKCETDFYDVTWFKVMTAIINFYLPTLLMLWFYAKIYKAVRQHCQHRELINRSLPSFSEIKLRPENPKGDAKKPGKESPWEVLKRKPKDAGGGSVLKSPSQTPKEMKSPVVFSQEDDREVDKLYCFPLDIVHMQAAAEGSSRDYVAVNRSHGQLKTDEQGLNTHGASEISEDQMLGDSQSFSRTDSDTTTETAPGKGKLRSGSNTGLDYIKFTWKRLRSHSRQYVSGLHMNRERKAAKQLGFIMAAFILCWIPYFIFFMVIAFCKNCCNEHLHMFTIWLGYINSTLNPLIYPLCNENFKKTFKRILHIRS
# method.notes: Histamine H1 radioligand binding assay ([3H]Pyrilamine)
# assay.setup: compound at 1 μM, receptor expressed in CHO cells
# Protocol: To evaluate in radioligand binding assays the activity of compounds of the invention, human recombinant histamine H1 receptor expressed in Chinese hamster ovary (CHO) cells (De Backer, M. D. et al., Biochem. Biophys. Res. Comm. 197(3):1601, 1993) in a modified Tris-HCl buffer (50 mM Tris-HCl, pH 7.4, 2 mM MgCl2, 100 mM NaCl, 250 mM Sucrose) was used. Compounds of the invention were incubated with 1.2 nM [^3H]Pyrilamine for 180 min at 25° C. […]
Record form. Attribute: inhibition at 1 µM. Fill in for each entry.
The reply must contain the numeric value and, after it, the unit.

Request: inhibition at 1 µM, test system human recombinant histamine H1 receptor (Homo sapiens, UniProt P35367), entry Cc1ccc(CCn2c3c(c4cc(Cl)ccc42)CN(C)C(C)C3)cn1 (stereo not shown)
101%

Look up inhibition at 1 µM with human recombinant histamine H1 receptor (Homo sapiens, UniProt P35367) for this compound: Cc1ccc2c(c1)c1c(n2CCc2ccc(C(F)(F)F)nc2)CCNC1
72%

Kindly state the measured inhibition at 1 µM obtained for Cc1ccc2c(c1)c1c(n2CCc2ccc(C(F)(F)F)nc2)CC(C)N(C)C1 (stereo not shown) with human recombinant histamine H1 receptor (Homo sapiens, UniProt P35367).
96%

inhibition at 1 µM of Cc1ccc2c(c1)c1c(n2CC2(c3ccncc3)CC2)CCN(C)C1 on human recombinant histamine H1 receptor (Homo sapiens, UniProt P35367)?
97%

Identify the measured inhibition at 1 µM of CN1CCc2c(c3cc(Cl)ccc3n2CC(=O)c2ccccc2)C1 for human recombinant histamine H1 receptor (Homo sapiens, UniProt P35367).
84%

Notebook: pull reported inhibition at 1 µM for human recombinant histamine H1 receptor (Homo sapiens, UniProt P35367), entry CN1CCc2c(c3cc(Cl)ccc3n2CC(=O)c2ccc(Cl)cc2)C1
91%

Request - read-out inhibition at 1 µM | tested on human recombinant histamine H1 receptor (Homo sapiens, UniProt P35367) | compound Cc1ccc2c(c1)c1c(n2CCc2ccc(C)nc2)CCN(CCCO)C1
93%

Lookup: inhibition at 1 µM / human recombinant histamine H1 receptor (Homo sapiens, UniProt P35367) / Cc1ccc2c(c1)c1c(n2CCc2ccc(C)nc2)CCN(CCC#N)C1
65%

# get_value(readout= inhibition at 1 µM, system= human recombinant histamine H1 receptor (Homo sapiens, UniProt P35367)) for Cc1ccc2c(c1)c1c(n2CC(C)c2ccc(C)nc2)CC(C)N(C)C1 (stereo not shown)
91%

Checklist item: inhibition at 1 µM tested on human recombinant histamine H1 receptor (Homo sapiens, UniProt P35367), entry Cc1ccc2c(c1)c1c(n2CCc2ccc(CCCN)nc2)CCN(C)C1 , value?
81%
